Overview of recorded mean relative fluorescence intensity at 6.25 µM peptide for various binders
# measured.target: T1, HLA-A*0201 molecule on human T2 cells (human)
# T1 construct: read out with anti-HLA-A2 antibody BB7.2-PE; also called HLA-A2
# measurement.notes: T2 cells expressing HLA-A*0201, anti-HLA-A2-PE, FACS

Below, 3 binders whose answers are already recorded.
INSERT INTO measurements (binder, value_reported) VALUES
  ('AVFRVLIPV [EZH2-B2]', '0.5 % of HIV peptide'),
  ('LMDLSTTPL (Fragment of human FOXM1) [FOXM1-H2]', '19.7 % of HIV peptide'),
  ('SMEELLWFV [TYMS-B]', '36 % of HIV peptide');

// sample LMDLSTTEV [FOXM1-B2] , its mean relative fluorescence intensity at 6.25 µM peptide was 33.5 % of HIV peptide

// sample VLEELLWFI (Fragment of human TYMS) [TYMS-H] , its mean relative fluorescence intensity at 6.25 µM peptide was 26.6 % of HIV peptide

// sample RLSSYLVEI [FOXM1-B] , its mean relative fluorescence intensity at 6.25 µM peptide was 0 % of HIV peptide

// sample ILDEAYVRV [EGFR-B] , its mean relative fluorescence intensity at 6.25 µM peptide was 29.2 % of HIV peptide

// sample YLLSAALTI [CHI3L1B3] , its mean relative fluorescence intensity at 6.25 µM peptide was 30.2 % of HIV peptide

// sample FLPFGFILV [IL13RA2-B] , its mean relative fluorescence intensity at 6.25 µM peptide was 40.8 % of HIV peptide

// sample RVSSYLVPI (Fragment of human FOXM1) [FOXM1-H] , its mean relative fluorescence intensity at 6.25 µM peptide was 0 % of HIV peptide

// sample FMVEDETVL (Fragment of human EZH2) [EZH2-H] , its mean relative fluorescence intensity at 6.25 µM peptide was 10.6 % of HIV peptide

// sample FLVEDETVI [EZH2-B] , its mean relative fluorescence intensity at 6.25 µM peptide was 28.9 % of HIV peptide

// sample LLLSAALSA (Fragment of human CHI3L1) [CHI3L1H] , its mean relative fluorescence intensity at 6.25 µM peptide was 4.4 % of HIV peptide

// sample WLPFGFILI (Fragment of human IL13RA2) [IL13RA2-H] , its mean relative fluorescence intensity at 6.25 µM peptide was 9.6 % of HIV peptide

// sample LLLSAALSV [CHI3L1B] , its mean relative fluorescence intensity at 6.25 µM peptide was 44 % of HIV peptide

// sample YTLGEFLYI [BIRC5-B2] , its mean relative fluorescence intensity at 6.25 µM peptide was 9 % of HIV peptide
